assay: Compound B pharmacokinetics after oral administration of a single dose alone (fasting) and with ritonavir (fed), human subjects; format: in vivo; settings: plasma, po, single oral dose 300 mg (active 270 mg) + ritonavir (100 mg every 12 hours for 3 doses), fed, median
quantity: Tmax (h)
Enter your answer as a number in h; do not include the unit.

Looking for the measured Tmax of Cc1c(O)cccc1C(=O)N[C@@H](Cc1ccccc1)[C@H](O)C(=O)N1CC(F)(F)C(C)(C)[C@H]1C(=O)NCC(F)(F)F [Compound B] , can you help? 4

----------
experiment: Compound A pharmacokinetics after oral administration of a single dose with and without ritonavir, human subjects, fed; type: in vivo; conditions: plasma, po, 800 mg, single oral dose 800 mg, without ritonavir, arithmetic mean, N = 5, read-out: t½ (terminal phase plasma half-life) (converted)
quantity: half-life (h)
Enter your answer as a number in h; do not include the unit.

Looking for the measured half-life of C=CCNC(=O)[C@H]1N(C(=O)[C@@H](O)[C@H](Cc2ccccc2)NC(=O)c2cccc(O)c2C)CSC1(C)C , can you help? 11.7

Sourced from patent US20050171037A1
